- Target of assay: Alkaline phosphatase, tissue-nonspecific isozyme (Homo sapiens, UniProt P05186)
- Sequence (P05186 whole entry): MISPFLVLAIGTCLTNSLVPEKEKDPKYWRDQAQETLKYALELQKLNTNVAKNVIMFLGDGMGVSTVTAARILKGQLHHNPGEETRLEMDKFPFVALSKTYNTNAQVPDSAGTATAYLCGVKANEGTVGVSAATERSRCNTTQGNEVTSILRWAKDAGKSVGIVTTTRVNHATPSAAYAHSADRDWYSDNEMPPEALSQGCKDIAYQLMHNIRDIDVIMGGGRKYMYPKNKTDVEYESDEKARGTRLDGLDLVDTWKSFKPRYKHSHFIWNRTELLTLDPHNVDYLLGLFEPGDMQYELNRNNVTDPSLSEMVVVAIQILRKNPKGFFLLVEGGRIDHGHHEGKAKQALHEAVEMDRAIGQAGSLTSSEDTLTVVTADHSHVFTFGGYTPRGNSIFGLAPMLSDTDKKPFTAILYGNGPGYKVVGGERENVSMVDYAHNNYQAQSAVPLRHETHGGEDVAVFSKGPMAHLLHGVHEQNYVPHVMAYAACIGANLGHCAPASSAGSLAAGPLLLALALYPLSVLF
- Assay remarks: potency against alkaline phosphatase TNAP – biochemical, luminescent, dose response, SAR follow-up (AID 1056)
Active and inactive are the calls of the source. No stated cut-off is given here; in the data, actives have a measured IC50 and inactives only a lower limit.
In this exercise, the only acceptable responses are active, inactive

Exam item: What outcome does the record of this test show for Cc1nccn1-c1cccnc1 ?
Marked response: inactive

Exam item: What outcome does the record of this test show for COc1ccc(OC)c(NC(=O)c2cnc3ccccc3c2)c1 ?
Marked response: inactive

Exam item: What outcome does the record of this test show for O=S(=O)(Nc1cccnc1)c1ccccc1 ?
Marked response: inactive

Exam item: What outcome does the record of this test show for COc1ccc(OC)c(NC(=O)c2cccnc2)c1 ?
Marked response: inactive

Exam item: What outcome does the record of this test show for COc1ccc(-c2nnc3oc(O)cc(C)c2-3)cc1 ?
Marked response: active

Exam item: What outcome does the record of this test show for O=C(Nc1ccccc1)c1n[nH]c2c1COc1ccccc1-2 ?
Marked response: inactive
